Assay: CCTE_Mundy_HCI_Cortical_Synap_Neur_Matur_BPCount: CCTE's Synaptogenesis and Neurite Maturation Assay in rat cortical cells for Branch Point Count, Mundy Lab (AID 2284211)
Calls of active or inactive are those of the source. How the source made its calls: active means hit-call score of the fitted dose curve at least 0.9, where 1 is the maximum; inactive means score below 0.9.
Pick from true (1) for active, false (0) for inactive when you respond.

Hi, do you know how S=C1NCCN1 came out in this test?
false (0)

Hi, do you know how CCOP(=O)(OCC)Oc1cc(C)nc(C(C)C)n1 came out in this test?
false (0)

Hi, do you know how CC1=NNC(=O)N(/N=C/c2cccnc2)C1 came out in this test?
false (0)

Hi, do you know how CN1COCN(Cc2cnc(Cl)s2)C1=N[N+](=O)[O-] came out in this test?
false (0)

Hi, do you know how CCOP(=O)(SC(C)CC)N1CCSC1=O (centres undefined) came out in this test?
false (0)

Hi, do you know how O=[N+]([O-])c1cc(C(F)(F)F)c(Cl)c([N+](=O)[O-])c1Nc1ncc(C(F)(F)F)cc1Cl came out in this test?
true (1)

Hi, do you know how COP(=O)(NC(C)=O)SC (centres undefined) came out in this test?
false (0)

Hi, do you know how CCOP(=S)(OCC)Oc1ccc2c(C)c(Cl)c(=O)oc2c1 came out in this test?
true (1)

Hi, do you know how CSC1=N[C@@](C)(c2ccccc2)C(=O)N1Nc1ccccc1 came out in this test?
false (0)

Hi, do you know how COP(=O)(OC)C(O)C(Cl)(Cl)Cl (centres undefined) came out in this test?
true (1)

Hi, do you know how CCCSP(=O)(OCC)SCCC came out in this test?
false (0)

Hi, do you know how CCOP(=S)(OCC)Oc1cc(C)nc(C(C)C)n1 came out in this test?
true (1)

Hi, do you know how CCCSP(=O)(OCC)Oc1ccc(Br)cc1Cl (centres undefined) came out in this test?
false (0)

Hi, do you know how CCOP(=S)(OCC)SCCSCC came out in this test?
false (0)

----------
Read-out: JUN Transcription Factor, JUN (gene 3725)
Assay: LTEA_HepaRG_JUN: Life Technologies and Expression Analysis (LTEA) Assay for JUN Transcription Factor using HepaRG (AID 2283513)
Settings: mRNA level, 48 h; actives raise or lower the signal
Activity calls are given as the source filed them. Rule for the calls: active = hit-call score of the fitted dose curve at least 0.9, where 1 is the maximum; inactive = score below 0.9.
Pick from 1 for active, -1 for inactive when you respond.

Consider the worked cases shown below.
CC(=NC#N)N(C)Cc1ccc(Cl)nc1 :: -1
C=C(C)[C@H]1Cc2c(ccc3c2O[C@@H]2COc4cc(OC)c(OC)cc4[C@@H]2C3=O)O1 :: 1
Nc1nc(N)nc(NC2CC2)n1 :: -1
CC(C)=CC1C(C(=O)OCN2C(=O)C3=C(CCCC3)C2=O)C1(C)C (configuration not stated) :: -1
CCC(CC)Nc1c([N+](=O)[O-])cc(C)c(C)c1[N+](=O)[O-] :: -1
CSC1=N[C@@](C)(c2ccccc2)C(=O)N1Nc1ccccc1 :: -1

Hi, do you know how Nc1c(Cl)cc([N+](=O)[O-])cc1Cl came out in this test?
-1

Hi, do you know how CCCCOC(=O)[C@@H](C)Oc1ccc(Oc2ccc(C#N)cc2F)cc1 came out in this test?
-1

Hi, do you know how CCCOc1nn(C(=O)NS(=O)(=O)c2ccccc2C(=O)OC)c(=O)n1C came out in this test?
-1

Hi, do you know how CCOP(=S)(OCC)Oc1ccc([N+](=O)[O-])cc1 came out in this test?
-1

Hi, do you know how CN(C)NC(=O)CCC(=O)O came out in this test?
-1

Hi, do you know how CCOP(=O)(SC(C)CC)N1CCSC1=O (configuration not stated) came out in this test?
-1
